Target entity: T1, CD123-Fc recombinant protein (human, UniProt P26951 19-305)
T1 construct: construct not described; not shown: Fc part
T1 sequence (looked up): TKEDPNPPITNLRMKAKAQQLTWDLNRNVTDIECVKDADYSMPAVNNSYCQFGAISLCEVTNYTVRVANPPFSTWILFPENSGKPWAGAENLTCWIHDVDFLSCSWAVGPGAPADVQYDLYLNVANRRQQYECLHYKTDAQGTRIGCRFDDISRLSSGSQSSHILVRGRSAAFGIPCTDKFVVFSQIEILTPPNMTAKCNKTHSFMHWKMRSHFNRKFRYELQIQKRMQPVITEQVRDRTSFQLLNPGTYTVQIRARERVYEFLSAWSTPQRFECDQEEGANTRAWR
Method notes: flow cytometry of T cells electroporated with CAR mRNA, stained with CD123-Fc + PE-anti-hIgG-Fc; Mock 1.68
Quantity measured: percent of cells in the CD123-Fc positive gate (%)
Give the value in % but do not write % after it.

Request: Fill in percent of cells in the CD123-Fc positive gate for record C12 (scFv, also called anti-CD123 scFv-C12) scFv: QSVLTQPPSVSAAPGQKVTISCSGSSSNIGNNYVSWYQQLPGTAPKLLIFDDNKRPSGIPDRFSGSLSGTSASLAISGLQSEDDADYYCSAWDDSLSGYVFGTGTKLTVLGGGGSGGGGSGGGGSQVQLVQSGGGLVKPGGSLRLSCAASGFTFSSYNINWVRQAPGKGPEWVSSISSSSSYRYYADSVKGRFTISRDNAKNSLYLQMNSLRAEDTAVYYCVRDKTGGYGTAFDYWGQGTLVTVSS
Response: 1.37

Request: Fill in percent of cells in the CD123-Fc positive gate for record anti-CD123 scFv-C5 (scFv, On mRNA-electroporated T cells as CAR; also called anti-CD123-C5) scFv: NFMLTQPHSVSESPGKTVTLSCTRSSGSIAGSYVQWYQQRPGSSPTTVIFQDNQRPSGVPDRFSGSIDKSSNSASLTISGLKTEDEADYYCQSYDSNNQVFGGGTKLTVLGGGGSGGGGSGGGGSEVHLVESGGGVVRPGGSLRLSCAASGFTFGDYGMSWVRQAPGKGLEWVSGINWNGGRTGYADSVKGRFTISRDNAKNSLYLQMNSLRAEDTALYYCARARGSGSYFGYMDVWGKGTTVTVSS
Response: 79.3
